Value source: ChEMBL document CHEMBL2424639

The entries below are paired with their reported Activity.
tested on: Rattus norvegicus; assay: Antiinflammatory activity in albino rat assessed as protection against carrageenan-induced paw edema at 25 mg/kg, po administered 1 hr prior to carrageenan challenge measured after 4 hrs relative to control; assay type: functional

[
  {
    "compound": "COc1ccc(Cl)cc1C(=O)Nc1ccc(C2=NN(c3ccccc3)C(c3ccccc3[N+](=O)[O-])C2)cc1 (centres undefined)",
    "unit annotation": "%",
    "Activity": 80.18
  },
  {
    "compound": "COc1ccc(Cl)cc1C(=O)Nc1ccc(C2=NN(CN3CCOCC3)C(c3ccc([N+](=O)[O-])cc3)C2)cc1 (centres undefined)",
    "unit annotation": "%",
    "Activity": 94.13
  },
  {
    "compound": "COc1ccc(Cl)cc1C(=O)Nc1ccc(C2=NNC(c3ccc([N+](=O)[O-])cc3)C2)cc1 (centres undefined)",
    "unit annotation": "%",
    "Activity": 91.25
  },
  {
    "compound": "COc1ccc(C2CC(c3ccc(NC(=O)c4cc(Cl)ccc4OC)cc3)=NN2C(C)=O)cc1 (centres undefined)",
    "unit annotation": "%",
    "Activity": 86
  }
]
